- method: Study B: plasma pharmacokinetics after single-dose i.v. telavancin 10 mg/kg in subjects with varying renal function
- condition: both, human, in vivo, iv, 10 mg/kg, t ½ (terminal elimination half-life), study B, single 1-h i.v. infusion telavancin 10 mg/kg; plasma; severe RI (eGFR 15 to 29 mL/min/1.73 m^2), n = 8; mean ± SD
reported_metric: half-life

{"input_smiles": "CCCCCCCCCCNCCN[C@@]1(C)C[C@H](O[C@H]2[C@H](Oc3c4cc5cc3Oc3ccc(cc3Cl)[C@@H](O)[C@@H](NC(=O)[C@@H](CC(C)C)NC)C(=O)N[C@@H](CC(N)=O)C(=O)N[C@H]5C(=O)N[C@H]3C(=O)N[C@H](C(=O)N[C@H](C(=O)O)c5cc(O)c(CNCP(=O)(O)O)c(O)c5-c5cc3ccc5O)[C@H](O)c3ccc(c(Cl)c3)O4)O[C@H](CO)[C@@H](O)[C@@H]2O)O[C@@H](C)[C@H]1O", "value_reported": "11.8 h"}

----------
- method: Study B: plasma pharmacokinetics after single-dose i.v. telavancin 10 mg/kg in subjects with varying renal function
- condition: both, human, in vivo, iv, 10 mg/kg, C max (maximum plasma concentration), study B, single 1-h i.v. infusion telavancin 10 mg/kg; mild RI (eGFR 60 to 89 mL/min/1.73 m^2), n = 13; mean ± SD

{"compound": "CCCCCCCCCCNCCN[C@@]1(C)C[C@H](O[C@H]2[C@H](Oc3c4cc5cc3Oc3ccc(cc3Cl)[C@@H](O)[C@@H](NC(=O)[C@@H](CC(C)C)NC)C(=O)N[C@@H](CC(N)=O)C(=O)N[C@H]5C(=O)N[C@H]3C(=O)N[C@H](C(=O)N[C@H](C(=O)O)c5cc(O)c(CNCP(=O)(O)O)c(O)c5-c5cc3ccc5O)[C@H](O)c3ccc(c(Cl)c3)O4)O[C@H](CO)[C@@H](O)[C@@H]2O)O[C@@H](C)[C@H]1O [telavancin]", "Cmax": "74.2 µg/mL"}

----------
- method: Study B: plasma pharmacokinetics after single-dose i.v. telavancin 10 mg/kg in subjects with varying renal function
- condition: both, human, in vivo, iv, 10 mg/kg, AUC0–∞, study B, single 1-h i.v. infusion telavancin 10 mg/kg; plasma; moderate RI (eGFR 30 to 59 mL/min/1.73 m^2), n = 8; mean ± SD
reported_metric: AUC(0-inf)

{"input_smiles": "CCCCCCCCCCNCCN[C@@]1(C)C[C@H](O[C@H]2[C@H](Oc3c4cc5cc3Oc3ccc(cc3Cl)[C@@H](O)[C@@H](NC(=O)[C@@H](CC(C)C)NC)C(=O)N[C@@H](CC(N)=O)C(=O)N[C@H]5C(=O)N[C@H]3C(=O)N[C@H](C(=O)N[C@H](C(=O)O)c5cc(O)c(CNCP(=O)(O)O)c(O)c5-c5cc3ccc5O)[C@H](O)c3ccc(c(Cl)c3)O4)O[C@H](CO)[C@@H](O)[C@@H]2O)O[C@@H](C)[C@H]1O", "reported_metric": "AUC(0-inf)", "value_reported": "936 µg·h/mL"}

----------
- method: Study B: plasma pharmacokinetics after single-dose i.v. telavancin 10 mg/kg in subjects with varying renal function
- condition: both, human, in vivo, iv, 10 mg/kg, AUC0–∞, study B, single 1-h i.v. infusion telavancin 10 mg/kg; plasma; normal renal function (eGFR ≥90 mL/min/1.73 m^2), n = 14; mean ± SD

{"input_smiles": "CCCCCCCCCCNCCN[C@@]1(C)C[C@H](O[C@H]2[C@H](Oc3c4cc5cc3Oc3ccc(cc3Cl)[C@@H](O)[C@@H](NC(=O)[C@@H](CC(C)C)NC)C(=O)N[C@@H](CC(N)=O)C(=O)N[C@H]5C(=O)N[C@H]3C(=O)N[C@H](C(=O)N[C@H](C(=O)O)c5cc(O)c(CNCP(=O)(O)O)c(O)c5-c5cc3ccc5O)[C@H](O)c3ccc(c(Cl)c3)O4)O[C@H](CO)[C@@H](O)[C@@H]2O)O[C@@H](C)[C@H]1O", "AUC(0-inf) / µg·h/mL": 539}
